- Tested on: SN12C
- Experiment Summary: NCI tumour cell line growth inhibition, 48 h
Calls of active or inactive are those of the source. Cut-off read from the data, not from the text of the source: active = GI50 up to about 1.1 µM and inactive = higher.
Parameter: GI50

| Compound | Result |
| --- | --- |
| CC(=O)OC1CC2(O)C(CCC3(C)C(c4ccc(=O)oc4)CCC32O)C2(C)C1=CC(O)C1OC12 (stereo not given) | 0.0349 µM (active) |
| O=C1C=Cc2c1csc2Br | > 100 µM (inactive) |

# map each compound to its GI50
1. c1ccc(COC[C@H]2O[C@@H](c3ccccc3)C[C@@H](OCc3ccccc3)C2OCc2ccccc2)cc1 (stereo not given in full)
2. CCc1ccc2c(c1)CC1(C2)Cc2cc3c(cc2C1)C(=O)CC3 (stereo not given)
3. COc1cc(C2SCC(=O)N2c2ccc(-c3ccc(-n4c(-c5ccccc5)nc5ccccc5c4=O)cc3)cc2)cc(OC)c1OC (stereo not given)

-- reply
1. > 10 µM (inactive)
2. 27 µM (inactive)
3. 81.5 µM (inactive)
